- System: A549
- Protocol description: NCI tumour cell line growth inhibition, 48 h
The source made the active and inactive calls. Rule as the data show it: active = GI50 up to about 1.1 µM and inactive = higher.
Tick one outcome: active, inactive

Previously resolved entries follow.
CC1CC(C)CC(NC2=NCCO2)C1 (centres undefined): inactive
O=C1CS(=O)(=O)C(c2cccc(Oc3ccccc3)c2)N1C1CC1 (centres undefined): inactive
CC(=O)c1sc(-c2nc(C)c(C(=O)/C=C\c3ccc(/C=C\C(=O)c4sc(-c5nc(C)c(C(C)=O)s5)nc4C)cc3)s2)nc1C: inactive

Could you check what this test reported for C=CCC1CC(n2cc(C)c(=O)[nH]c2=O)OC1CO[Si](C)(C)C(C)(C)C (centres undefined) ? inactive

// param item: O=C(NC(CS)C(=O)O)c1cccc2c(=O)c3ccccc3[nH]c12 (centres undefined) ; yields the recorded call inactive

Called result for Cc1c(C)c(S(=O)(=O)N(CCCCCN)OCCCN)c(C)c2c1OC(C)(C)CC2 inactive

Which outcome was assigned to COC(=O)C(C(=O)C(=O)Nc1ccc([N+](=O)[O-])cc1[N+](=O)[O-])c1nc2ccc(Cl)cc2nc1O (centres undefined) in this test? inactive

Record lookup: outcome of this test for CCNC(=O)C(C)C1CCC2(C)C=CC(=O)C(C)=C2C1O (centres undefined) ? inactive

----------
Would you kindly list GI50 for each of these compounds?
- Tested on: K562
- Protocol description: NCI tumour cell line growth inhibition, 48 h
Activity calls are given as the source filed them. No stated cut-off is given here; in the data, active = GI50 up to about 1.1 µM and inactive = higher.

COC(=O)C(=O)C(CC(=O)Nc1cccc(C(F)(F)F)c1)C(=O)OC (stereo not drawn): > 100 µM (inactive)

Give GI50 for each listed item.
1. COc1ccc(/C=C2\C[C@H]3[C@@H]4CC=C5C[C@@H](OC(C)=O)CC[C@]5(C)[C@H]4CC[C@]3(C)\C2=N\O)cc1OC
2. COC1CCC(CO)OO1 (stereo not drawn)
3. C/C=C(/C)C(=O)O[C@@H]1CCN2CC[C@H](COC(=O)/C(=C/C)CO)C12 (stereo partly drawn)
4. O=C(CCN1CCCCC1CO)Nc1ccc2c(c1)C(=O)c1ccc(NC(=O)CCN3CCCCC3CO)cc1C2=O (stereo not drawn)

1. 5.19 µM (inactive)
2. 4.73 µM (inactive)
3. 11.2 µM (inactive)
4. 6.25 µM (inactive)

// input: 5 compounds below; output: GI50 for each
1. COC1/C(=C\C(C)=O)c2ccccc2N1C(C)=O (stereo not drawn)
2. O=C1CS(=O)(=O)C(c2cccc(Oc3ccccc3)c2)N1C1CC1 (stereo not drawn)
3. CC(C)(Oc1ccc(Cl)cc1)C(=O)N(C(=O)N1CCCCC1)c1ccccc1
4. Cc1ccc(SSc2ccc(C)cc2C(=O)O)c(C(=O)O)c1
5. CC#C[C@@]1(O)CCCCC1O (stereo partly drawn)

1. > 100 µM (inactive)
2. 50.9 µM (inactive)
3. 8.17 µM (inactive)
4. > 100 µM (inactive)
5. > 100 µM (inactive)

For every listed record, write down its GI50.
1. C#C[C@]1(O)[C@@H](CO)O[C@@H](n2ccc(N)nc2=O)[C@@H]1O
2. COc1nc(C#CC2CCCCC2)nc(OC)n1
3. CC(C)(CO)NC(=O)c1cccs1
4. O=C1c2ccccc2C(=O)N1CCc1ncc[nH]1
5. O=C(O)CNC(=O)c1ccc(-c2ccccc2)cc1

1. < 0.01 µM (active)
2. 3.92 µM (inactive)
3. > 100 µM (inactive)
4. > 100 µM (inactive)
5. > 100 µM (inactive)

List the reported GI50 of each compound below.
1. COc1ccc2c(C(=O)O)cc3cc(OC)c(OC)cc3c2c1
2. O=C(O)OC12CCCCCC1C(=O)C1CCCCC12 (stereo not drawn)
3. CC(C)CCn1c(=O)c2c(=O)[nH][nH]c2c2ccccc21
4. COc1ccc2c(c1)c1c(n2CCN2CCCCC2)-c2cccc(OC)c2CC1

1. > 100 µM (inactive)
2. 42 µM (inactive)
3. > 100 µM (inactive)
4. 9.04 µM (inactive)

Return reported GI50 values for all items listed beneath this line.
1. O=C(NC(CS)C(=O)O)c1cccc2c(=O)c3ccccc3[nH]c12 (stereo not drawn)
2. O=NN(CCCl)C(=O)Nc1ccc(Cl)c(Cl)c1
3. O=C1C(Cl)=C(Oc2ccc([N+](=O)[O-])cc2)C(=O)c2c(O)ccc(O)c21
4. Nc1ccc(/N=N\c2ccc(-c3ccc(O)cc3)cc2)c2ccc(S(=O)(=O)O)cc12

> 100 µM (inactive)
36.9 µM (inactive)
13.3 µM (inactive)
> 100 µM (inactive)

----------
- System: SW-620
- Protocol description: NCI tumour cell line growth inhibition, 48 h
Activity calls are given as the source filed them. Cut-off read from the data, not from the text of the source: active = GI50 up to about 1.1 µM and inactive = higher.
Field: GI50. Provide a value for each of the compounds that follow.

// solved cases for GI50 follow
COc1ccc2ccc([Se]c3ccc4ccc(OC)cc4c3)cc2c1: > 100 µM (inactive)
Cc1cc(C)c(P2C(=C(O[Si](C(C)C)(C(C)C)C(C)C)C(C)(C)C)C2(c2ccccc2)c2ccccc2)c(C)c1 (centres undefined): > 100 µM (inactive)
COc1cc2cc(C(=O)N3CC(CCl)c4ccc([N+](C)(C)Cc5ccc([N+](=O)[O-])cc5)cc43)[nH]c2c(OC)c1OC (centres undefined): 1.5 µM (inactive)
COc1cccc2c1N[S@](=O)S2: > 100 µM (inactive)
CCC/N=C/c1c(O)c(O)c(C(C)C)c2cc(C)c(-c3c(C)cc4c(C(C)C)c(O)c(O)c(/C=N/CCC)c4c3O)c(O)c12: 6.55 µM (inactive)
Cc1cc(C)c(OC(=O)Nc2cccc3ccccc23)c(-c2ccccc2)c1: 57.8 µM (inactive)
N#Cc1c(-c2ccc([N+](=O)[O-])cc2)cc(-c2ccc(Nc3ccnc4cc(C(F)(F)F)ccc34)cc2)[nH]c1=O: > 100 µM (inactive)
COc1ccc(CNc2nc(NCc3ccc(OC)cc3)nc(NC(C)C)n2)cc1: 4.22 µM (inactive)

Please look at this compound and report its GI50: Cc1ccccc1/C=N/C12CC3CC(CC(C3)C1)C2 > 100 µM (inactive)

----------
- Tested on: A498
- Protocol description: NCI tumour cell line growth inhibition, 48 h
Activity calls are given as the source filed them. Cut-off read from the data, not from the text of the source: active = GI50 up to about 1.1 µM and inactive = higher.
Returns: one label drawn from active, inactive

Cc1ccc(C=C(C(=O)O)C(=O)O)o1: inactive

# outcome recorded in this test, key = NS(=O)(=O)c1ccc(NC(=O)Nc2ccccc2F)cc1 inactive

Test call for this molecule, please: O=C1c2ccccc2-c2c1c1ccccc1c(=O)n2Cc1ccco1 inactive

Check the results log: what was the call for COC1CCC(CO)OO1 (stereo not drawn) ? inactive

Per the records of this test, what outcome belongs to O=C1Cc2c(-c3ccccc3)cc(-c3ccc(Cl)cc3)nc2-c2ccccc2N1 ? inactive

So what was the verdict on C/C(=N\NC(=[Se])N(C)C)c1ccccn1 in this test? active

Lab log entry: C[Si](C)(C)C1(Sc2ccccc2)SCCCS1 — outcome as called in the assay? inactive

----------
- Test system: MDA-N
- Protocol description: NCI tumour cell line growth inhibition, 48 h
Calls of active or inactive are those of the source. No stated cut-off is given here; in the data, active = GI50 up to about 1.1 µM and inactive = higher.
Consider the following molecules; for each one, report its GI50.

In the examples that follow, each entry is paired with its recorded GI50.
CC(CC(C)(C)[N+](C)(C)C)[N+](C)(C)C (stereo not drawn): > 100 µM (inactive)
c1ccc2/c3[nH]/c(c2c1)=N\c1ccc(cc1)-c1nc2ccc(cc2o1)/N=c1/[nH]/c(c2ccccc12)=N/c1ccc2nc(oc2c1)-c1ccc(cc1)\N=3: 27.4 µM (inactive)
Cc1nnc(CC#N)n1NC(=O)CC#N: > 100 µM (inactive)

Please give GI50 for each item listed below.
1. CN(C)c1ccc(C2CC(c3ccc4ccccc4c3O)=NN2)cc1 (stereo not drawn)
2. C=C(C)C(=O)OC1C[C@H](COC(C)=O)C2CC=C(C)C2C2OC(=O)C(=C)[C@H]12 (stereo partly drawn)
3. N#C/C(C(=O)NCc1ccccc1)=C(/N)N1CCCC1
4. CN1C(=O)N/C(=C\c2ccc(S(=O)(=O)NN)cc2)C1=O
5. CCSc1[nH]c(Nc2nc(-c3ccccc3)n(-c3ccccc3)n2)c(C(N)=O)c1C(N)=O

26.5 µM (inactive)
3.66 µM (inactive)
> 100 µM (inactive)
> 100 µM (inactive)
> 10 µM (inactive)

----------
- Tested on: MDA-MB-231
- Protocol description: NCI tumour cell line growth inhibition, 48 h
The source made the active and inactive calls. Cut-off read from the data, not from the text of the source: active = GI50 up to about 1.1 µM and inactive = higher.
// allowed return values: 1 for active, 0 for inactive

CCN(CC)CCCNc1c2cc(OC)ccc2nc2cccc([N+](=O)[O-])c12: 1
CCCCNC(=S)Nc1nc(C(=O)NNC(=S)Nc2ccccc2)cs1: 0
C=C1C(=O)O[C@@H]2/C=C(\C)CC/C=C(\C)CC[C@@]12O: 0
C/C=C(/C)C(=O)O[C@@H]1CCN2CC[C@H](COC(=O)/C(=C/C)CO)C12 (stereo not given in full): 0
CCCC(=O)NC(Nc1ccc(F)cc1)(C(F)(F)F)C(F)(F)F: 0

Dear all, I need the recorded test outcome for c1ccc(Nc2nn3c(CCCCCCCCc4nnc5sc(Nc6ccccc6)nn45)nnc3s2)cc1 , thank you. 0

Please indicate how the test categorized CO/C(=N\N=C\c1ccc(Cl)cc1Cl)c1ccncc1 . 0

Per the records of this test, what outcome belongs to O=C1/C(=C/c2c(Cl)[nH]c3ccccc23)c2ccccc2N1c1ccccc1 ? 0

Assay outcome for c1ccc(-c2nnc(CCCCCCCCc3nnc(-c4ccccc4)o3)o2)cc1 : what was it? 0

Answer briefly: the call reported for O=C1C(Cl)=C(Oc2ccc([N+](=O)[O-])cc2)C(=O)c2c(O)ccc(O)c21 in this assay. 0
